Data provenance: the supplement of paper PMC10567573

B1: ALDH8A1 (parent)
chain: WSSRSPQERSRVLNQVADLLEQSL

Variants of: B1
Procedure summary: protein stability index of a GFP-peptide fusion (GPS, HEK-293T) (PSI 1-6); higher = more stable;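 also: lentivirally expressed fusions sorted by FACS into six bins by GFP to DsRed ratio, PSI derived from sequencing read proportions per bin multiplied by bin number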
Measurement conditions: c terminus: a fixed tail appended
Parameter measured: protein stability index
Reply with just the number.

>>> reading("R4T")
2.62
>>> reading("L20P")
4.33
>>> reading("L20G")
3.64
>>> reading("R4P")
2.64
>>> reading("S3P")
2.54
>>> reading("P6F")
1.84

Dear colleague, I am looking for the recorded protein stability index of the following variant: L24S
3.61

Sample S3I — what was its protein stability index?
2.2

protein stability index lookup needed for V12C , thanks.
2.35

Name the recorded protein stability index for A17W .
2.33

Request the reported protein stability index associated with S3L
1.98

What value of protein stability index has been reported for the following variant? Q7R
2.62

What value of protein stability index has been recorded for this entry: S10N
2.29

Value lookup for protein stability index; key = V16H
3.55

Name the recorded protein stability index for L13E .
3.49

// lookup protein stability index for D18Q
1.59

So what's the measured protein stability index for this one? E8R
2.88

GET /values?readout=protein stability index&item= L24H
3.96

Fill blank: measured protein stability index of the variant S3T is ____.
2.64
